# protocol text: qHTS assay for measurement of the activity of small molecule inhibitors on Zika virus induced Caspase-3 activity in human iPSC derived neural progenitor cells (hNPCs) (AID 1224857); note: nearly all actives have a fitted effect of over 65% in size
# measurement context: hNPCs ZIKV-induced caspase-3/7, Caspase-Glo luminescence, 6 h; series mostly up to 45.7 µM
Inconclusive results are not listed. Calls of active or inactive are those of the source. Calls come from the whole dose curve; as a rule, active = well fitted inhibition curve with a large enough effect; inconclusive = small, poorly fitted or top-dose-only effect; inactive = no such curve, though single readings can be large or run the other way.
Your response should consist of one outcome taken from active, inactive

What did this assay record as the result for `c1cnc2c(c1)ccc1cccnc12` ? inactive

What did this assay record as the result for CNC(=O)[C@H]1O[C@@H](n2cnc3c(NCc4ccc(N)cc4)ncnc32)[C@H](O)C1O (some centres not stated) ? inactive

What did this assay record as the result for CN1C2CC(OC(=O)[C@H](CO)c3ccccc3)CC1C1OC12 (some centres not stated) ? inactive

What did this assay record as the result for CCCCCCCCCCCCCCCCCC(=O)OC(CC(=O)O)C[N+](C)(C)C (configuration not stated) ? inactive

What did this assay record as the result for `O=C(c1cc(O)c(O)c([N+](=O)[O-])c1)c1ccccc1F` ? inactive

What did this assay record as the result for `O=C(O)c1cc(=O)c2ccccc2[nH]1` ? inactive

What did this assay record as the result for `O=c1cc(-c2ccccc2)oc2ccccc12` ? active

What did this assay record as the result for `Cc1cc(NC(=O)Nc2ccc3c(ccn3C)c2)sn1` ? inactive

What did this assay record as the result for `COc1ccc(/C=C2\COc3ccc(C)cc3C2=O)cc1O` ? inactive

What did this assay record as the result for CC[C@H]1OC(=O)[C@H](C)C(O[C@H]2C[C@@](C)(OC)[C@@H](O)[C@H](C)O2)[C@H](C)[C@@H](OC2O[C@H](C)C[C@H](N(C)C)[C@H]2O)[C@](C)(O)C[C@@H](C)CN(C)[C@H](C)[C@@H](O)[C@]1(C)O (some centres not stated) ? inactive

What did this assay record as the result for `O=C(O)CCCC[C@@H]1CCSS1` ? inactive

What did this assay record as the result for `COCCOc1cc2nc[nH]c(=O)c2cc1OCCOC` ? inactive

What did this assay record as the result for `O=c1cc(-c2ccccc2)oc2c(O)c(O)ccc12` ? inactive

What did this assay record as the result for `O=C(O)c1cc([N+](=O)[O-])ccc1NCCCc1ccccc1` ? active

What did this assay record as the result for `S=c1[nH]c(-c2ccccc2)cn1-c1ccccc1` ? inactive

What did this assay record as the result for `C=CCc1cccc(/C=N/NC(=O)CN2CCN(Cc3ccccc3)CC2)c1O` ? inactive

What did this assay record as the result for `Fc1ccc(C(OCCCc2cnc[nH]2)c2ccc(F)cc2)cc1` ? inactive
